Catalogue of variants with associated abundance fitness
B1: Pituitary-specific positive transcription factor 1, residues 130 to 198; numbered along this chain, P28069 (parent)
chain: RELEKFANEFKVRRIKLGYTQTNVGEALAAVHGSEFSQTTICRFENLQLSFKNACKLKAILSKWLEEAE

# Variants of: B1
# assay_comment: abundance fitness (aPCA) (normalised: wild type 0, dead -1); higher = more abundant; growth selection in yeast, the domain comes from the species named
# test_parameters: Homo sapiens
Give the figure by itself; no unit, no explanation.

Task: Quick one: abundance fitness of N46D ?
Output: -0.112

Task: Quick one: abundance fitness of E66F ?
Output: -0.242

Task: Quick one: abundance fitness of L47K ?
Output: -0.064

Task: Quick one: abundance fitness of R1I ?
Output: -0.508

Task: Quick one: abundance fitness of F44T ?
Output: -1.06

Task: Quick one: abundance fitness of Q21W ?
Output: -0.592

Task: Quick one: abundance fitness of L61S ?
Output: -0.815

Task: Quick one: abundance fitness of C55D ?
Output: 0.188

Task: Quick one: abundance fitness of T39P ?
Output: -0.387

Task: Quick one: abundance fitness of K52L ?
Output: -0.369

Task: Quick one: abundance fitness of S34Y ?
Output: -0.373

Task: Quick one: abundance fitness of T22G ?
Output: -0.052

Task: Quick one: abundance fitness of K52E ?
Output: 0.108

Task: Quick one: abundance fitness of A30K ?
Output: -0.008

Task: Quick one: abundance fitness of L61Y ?
Output: -0.759

Task: Quick one: abundance fitness of N8R ?
Output: 0.188

Task: Quick one: abundance fitness of N8Y ?
Output: -0.094

Task: Quick one: abundance fitness of K56P ?
Output: -0.626

Task: Quick one: abundance fitness of L47G ?
Output: 0.292

Task: Quick one: abundance fitness of G33F ?
Output: -0.934
